Observed pIC50 values for Enoyl-[acyl-carrier-protein] reductase [NADPH] FabI (Staphylococcus aureus) are listed in what follows.
Quick note: pIC50 means taking -log10 of the concentration in moles per liter.

Example compounds with recorded pIC50:
O=C1CCc2cc(/C=C/C(=O)N3CC(COc4ccc5ccccc5c4)C3)cnc2N1	5.85
Cc1c(C2CN(C(=O)/C=C/c3cnc4c(c3)CN(C)CC(=O)N4)C2)oc2ccccc12	6.95
O=C1CCc2cc(/C=C/C(=O)N3CC(COc4ccc(F)cc4)C3)cnc2N1	6.50
Cc1c(C2CN(C(=O)/C=C/c3cnc4c(c3)CCC(=O)N4)C2)oc2ccccc12	6.85
O=C1CCc2cc(/C=C/C(=O)N3CC(COc4cccc(F)c4)C3)cnc2N1	6.36

Query :: Query for Enoyl-[acyl-carrier-protein] reductase [NADPH] FabI (Staphylococcus aureus): what pIC50 does the record show for O=C1CCc2cc(/C=C/C(=O)N3CC(c4ccccc4)C3)cnc2N1 ?
Result :: 6.31

Query :: Provide the documented pIC50 with Enoyl-[acyl-carrier-protein] reductase [NADPH] FabI (Staphylococcus aureus) as the system for O=C1CCc2cc(/C=C/C(=O)N3CC(COc4ccccc4F)C3)cnc2N1
Result :: 6.42

Query :: Give Enoyl-[acyl-carrier-protein] reductase [NADPH] FabI (Staphylococcus aureus) pIC50 for Cc1cc(C2CN(C(=O)/C=C/c3cnc4c(c3)CCC(=O)N4)C2)nc2ccccc12
Result :: 6.62

Query :: Checklist item: pIC50 tested on Enoyl-[acyl-carrier-protein] reductase [NADPH] FabI (Staphylococcus aureus), entry Cc1c(C2CN(C(=O)/C=C/c3cnc4c(c3)CN(CCN3CCOCC3)CC(=O)N4)C2)oc2ccccc12 , value?
Result :: 6.54

---

Test system: Staphylococcus aureus
experiment_notes: Antibacterial activity against methicillin-sensitive Staphylococcus aureus ATCC 29213 after 16 to 20 hrs by broth microdilution method
Format: functional
recorded_endpoint: MIC

Use the examples below as a reference point.
Cc1c(CN(C)C(=O)/C=C/c2cnc3c(c2)CCC(=O)N3)oc2ccccc12	0.008 µg/mL
Cc1cc(C2CN(C(=O)/C=C/c3cnc4c(c3)CCC(=O)N4)C2)nc2ccccc12	32 µg/mL

Query :: Could you share which MIC value was measured for Cc1c(C2CN(C(=O)/C=C/c3cnc4c(c3)CN(C)CC(=O)N4)C2)oc2ccccc12 ?
Result :: 0.25 µg/mL

Query :: Can you look up the measured MIC of Cc1c(C2CN(C(=O)/C=C/c3cnc4c(c3)NCCC(=O)N4)C2)oc2ccccc12 for me?
Result :: 0.25 µg/mL

Query :: Reported MIC, compound O=C1CCc2cc(/C=C/C(=O)N3CC(c4ccccn4)C3)cnc2N1 : ____
Result :: 4 µg/mL

Query :: Value lookup for MIC; key = O=C1CCc2cc(/C=C/C(=O)N3CC(OCc4ccccc4)C3)cnc2N1
Result :: 1 µg/mL

Query :: Tell me the measured MIC of Cc1c(C2CN(C(=O)/C=C/c3cnc4c(c3)CN(CCN3CCOCC3)C(=O)N4)C2)oc2ccccc12 , please.
Result :: 1 µg/mL

Query :: Would you mind telling me what MIC value was observed for O=C1CCc2cc(/C=C/C(=O)N3CC(c4ccccc4)C3)cnc2N1 ?
Result :: 1 µg/mL

---

measured_on: Enoyl-[acyl-carrier-protein] reductase [NADPH] FabI (Staphylococcus aureus) (UniProt Q6GI75)
Sequence (whole entry): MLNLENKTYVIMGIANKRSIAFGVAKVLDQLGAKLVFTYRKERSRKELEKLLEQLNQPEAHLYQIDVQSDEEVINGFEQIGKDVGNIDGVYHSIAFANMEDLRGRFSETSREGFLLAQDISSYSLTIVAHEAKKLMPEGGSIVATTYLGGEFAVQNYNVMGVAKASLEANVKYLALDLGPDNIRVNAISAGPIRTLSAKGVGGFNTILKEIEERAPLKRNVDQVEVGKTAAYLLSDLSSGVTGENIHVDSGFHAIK
experiment_notes: Inhibition of Staphylococcus aureus FabI-mediated reduction of enoyl-ACP preincubated at 1 uM for 30 mins measured after 2 hrs by spectrophotometry
recorded_endpoint: inhibition (%)
Unit % implied. Number only.

O=C1CCc2cc(/C=C/C(=O)N3CC(COc4ccccc4)C3)cnc2N1	81
Cc1c(C2CN(C(=O)/C=C/c3cnc4c(c3)CCC(=O)N4)C2)oc2ccccc12	96

// below: inhibition requested for another compound
Query :: I have this compound here, O=C1CCc2cc(/C=C/C(=O)N3CC(Oc4nc5ccccc5s4)C3)cnc2N1 , and I need its recorded inhibition.
Result :: 16

---

// reported half-life for each item listed
experiment_notes: Half life in Swiss albino CD-1 mouse at 10 mg/kg, po administered as single dose
Format: ADME, organism-based
Parameters: dose 10 mg/kg, route oral
experimental_setup: in vivo
Report the figure in h without appending any unit label.

Cc1c(CN(C)C(=O)/C=C/c2cnc3c(c2)CCC(=O)N3)oc2ccccc12 [AFN-1252]	1.84

For the next question, use this molecule.
Query :: Data request, read-out half-life, for Cc1c(C2CN(C(=O)/C=C/c3cnc4c(c3)CNCC(=O)N4)C2)oc2ccccc12
Result :: 8.5

---

System: Staphylococcus aureus
experiment_notes: Antibacterial activity against methicillin-resistant Staphylococcus aureus ATCC 33591 after 16 to 20 hrs by broth microdilution method
Type: functional
Documented log10(MIC) across a set of molecules
Give log10 of MIC, with MIC taken in mg/L.

Past entries and their recorded results:
Cc1ccc(OCC2CN(C(=O)/C=C/c3cnc4c(c3)CCC(=O)N4)C2)cc1	0.00
O=C1CCc2cc(/C=C/C(=O)N3CC(COc4ccccc4)C3)cnc2N1	-0.60
CC(=O)Nc1ccc(/C=C/C(=O)N2CC(c3oc4ccccc4c3C)C2)cn1	0.00
Cc1c(C2CN(C(=O)/C=C/c3cnc4c(c3)CN(CCN3CCOCC3)C(=O)N4)C2)oc2ccccc12	0.00
Cc1c(C2CN(C(=O)/C=C/c3cnc4c(c3)CCC(=O)N4)C2)oc2ccc(Cl)cc12	-0.60

Query :: What measured log10(MIC) goes with Cc1cccc(OCC2CN(C(=O)/C=C/c3cnc4c(c3)CCC(=O)N4)C2)c1 ?
Result :: 0.30

Query :: For O=C1CCc2cc(/C=C/C(=O)N3CC(c4nc5ccccc5s4)C3)cnc2N1 , what is its reported log10(MIC)?
Result :: -0.60

Query :: Which log10(MIC) value is on record for Cc1c(CN(C)C(=O)/C=C/c2cnc3c(c2)CCC(=O)N3)oc2ccccc12 ?
Result :: -2.10

---

Below is a list of entries, each paired with its recorded AUC value.
experiment_notes: AUC in Swiss albino CD-1 mouse at 10 mg/kg, po administered as single dose
Type: ADME, organism-based
Design: dose 10 mg/kg, route oral
experimental_setup: plasma
Quick note: give the figure in ng·h/mL, leave out the unit.

Cc1c(C2CN(C(=O)/C=C/c3cnc4c(c3)CNCC(=O)N4)C2)oc2ccccc12	9000

Query :: For Cc1c(CN(C)C(=O)/C=C/c2cnc3c(c2)CCC(=O)N3)oc2ccccc12 [AFN-1252] , what is its reported AUC?
Result :: 2200

---

The entries below are paired with their reported Tmax.
experiment_notes: Tmax in Swiss albino CD-1 mouse at 10 mg/kg, po administered as single dose
Format: ADME, organism-based
Parameters: dose 10 mg/kg, route oral
experimental_setup: in vivo
Express the result in h but write the number alone.

Here's what some known entries look like.
Cc1ccccc1OCC1CN(C(=O)/C=C/c2cnc3c(c2)CCC(=O)N3)C1	2
Cc1c(C2CN(C(=O)/C=C/c3cnc4c(c3)CNCC(=O)N4)C2)oc2ccccc12	0.5
Cc1c(C2CN(C(=O)/C=C/c3cnc4c(c3)CCC(=O)N4)C2)sc2ccccc12	4
O=C1CCc2cc(/C=C/C(=O)N3CC(COc4ccc(F)cc4)C3)cnc2N1	2
Cc1c(C2CN(C(=O)/C=C/c3cnc4c(c3)CCC(=O)N4)C2)oc2ccc(Cl)cc12	1

Query :: # lookup: Tmax of Cc1c(C2CN(C(=O)/C=C/c3cnc4c(c3)CCC(=O)N4)C2)oc2ccccc12
Result :: 2

Query :: Reported Tmax for O=C1CCc2cc(/C=C/C(=O)N3CC(c4nc5ccccc5s4)C3)cnc2N1 : what is it?
Result :: 2

Query :: Could you tell me which Tmax is on file for Cc1c(CN(C)C(=O)/C=C/c2cnc3c(c2)CCC(=O)N3)oc2ccccc12 [AFN-1252] ?
Result :: 1

---

experiment_notes: Metabolic stability in mouse liver mirosomes assessed as compound remaining at 1 uM after 60 mins by LC-MS/MS analysis
Assay type: ADME, tissue-based
experimental_setup: liver microsomes, read-out: Stability
# reported remaining at 1 h, 1 µM; entries follow
// return numeric value only (unit: %, not printed)

Some entries whose results are on file:
Cc1c(C2CN(C(=O)/C=C/c3cnc4c(c3)CNCC(=O)N4)C2)oc2ccccc12	76.4
Cc1c(C2CN(C(=O)/C=C/c3cnc4c(c3)CN(C)CC(=O)N4)C2)oc2ccccc12	6.6

Query :: Which remaining at 1 h, 1 µM value belongs to Cc1c(CN(C)C(=O)/C=C/c2cnc3c(c2)CCC(=O)N3)oc2ccccc12 ?
Result :: 17.5
